GI50 values by entry
System: HCT-15 colon
Test: NCI tumour cell line growth inhibition, 48 h

{"compound": "O=C(O)CCCCC(CCSCc1ccccc1)SCc1ccccc1 (configuration not stated)", "experimental.system": "HCT-15 colon", "GI50": "33.1 µM"}
{"compound": "O=C1/C(=C/c2ccc(Cl)cc2Cl)N=C(c2ccccc2)N1Cc1ccco1", "experimental.system": "HCT-15 colon", "GI50": "37.7 µM"}
{"compound": "N#C/C(=C1C=C/C(=N/O)C(Br)=C/1)c1ccccc1", "experimental.system": "HCT-15 colon", "GI50": "2.41 µM"}
{"compound": "O=C1c2c(c3c4ccccc4n(CCCCCCBr)c3c3[nH]c4ccccc4c23)C(=O)N1O", "experimental.system": "HCT-15 colon", "GI50": "2.64 µM"}
{"compound": "O=C1c2cccc(NCCN=Cc3cc(O)ccc3O)c2C(=O)c2c(NCCN=Cc3cc(O)ccc3O)cccc21", "experimental.system": "HCT-15 colon", "GI50": "2.84 µM"}
{"compound": "COc1cc(OC)cc(-c2ccc(-c3ccc(C(=N)N)o3)o2)c1", "experimental.system": "HCT-15 colon", "GI50": "3.18 µM"}
{"compound": "C=C(CN1CCc2ccccc2C1)c1ccc(C(=O)Nc2cnccn2)cc1", "experimental.system": "HCT-15 colon", "GI50": "28.8 µM"}
{"compound": "Cn1c(N2NC(=O)C(N=Nc3ccc(S(N)(=O)=O)cc3)C2=O)nc(-c2ccco2)c(C#N)c1=O (configuration not stated)", "experimental.system": "HCT-15 colon", "GI50": "8.44 µM"}
{"compound": "CC1=C(C(=O)Nc2ccc3[nH]ncc3c2)C(c2ccc3ccccc3c2)CC(=O)N1 (configuration not stated)", "experimental.system": "HCT-15 colon", "GI50": "> 25 µM"}
{"compound": "C[C@]12CC[C@H](O)CC1=CC[C@@H]1[C@@H]2CC[C@]2(C)C(c3cccnc3)=CC[C@@H]12", "experimental.system": "HCT-15 colon", "GI50": "25.8 µM"}
{"compound": "COc1ccc2[nH]c(O)c(/C=c3/cc4c(c(-c5cc(OC)c(OC)c(OC)c5)n3)=Nc3ccccc3-4)c2c1", "experimental.system": "HCT-15 colon", "GI50": "5.3 µM"}
{"compound": "CC1OC(O[C@H]2C[C@@H](O)[C@]3(CO)[C@H]4[C@H](O)C[C@]5(C)[C@@H](C6=CC(=O)OC6)CC[C@]5(O)[C@@H]4CC[C@]3(O)C2)C(O)C(O)C1O (some centres not stated)", "experimental.system": "HCT-15 colon", "GI50": "17.3 µM"}

* * *

Test system: UO-31 renal
Experiment: NCI tumour cell line growth inhibition, 48 h
# label = t if TGI >= 30 µM else f

{"molecule": "O=C(O)CSc1nnc(COc2ccc(Cl)cc2)n1-c1ccccc1", "category": "t"}
{"molecule": "c1ccc2c(c1)OC(N1CCCC1)c1cnc(N3CCCC3)nc1-2 (stereo unspecified)", "category": "t"}
{"molecule": "CC1CCC2(C(=O)O)CCC3(C)C(=CCC4C5(C)CC(O)C(O)C(C)(CO)C5C(O)CC43C)C2C1C (stereo unspecified)", "category": "t"}
{"molecule": "CSc1nc(Cl)c2c(n1)Sc1nc3cc4c(cc3n1C2O)OCCO4 (stereo unspecified)", "category": "f"}
{"molecule": "Cc1nn(CN2CCN(C)CC2)c(=S)n1/N=C/c1cccc2ccccc12", "category": "t"}
{"molecule": "OC1C2[C@@H](O)CCCN2C[C@@H](O)[C@H]1O (stereo partly specified)", "category": "t"}
{"molecule": "CC1=C(O)C(=O)[C@@H]2O[C@@H]2C1=O", "category": "t"}
{"molecule": "CSc1cc(N=Nc2nc3ccccc3s2)c2ccccc2c1O", "category": "f"}
{"molecule": "C#CCCCCC#Cc1ccccc1C(=O)OC", "category": "t"}
{"molecule": "CCOC(=O)CNC(=O)C(CSCc1ccc(Br)cc1)NC(=O)CCC(N)C(=O)OCC (stereo unspecified)", "category": "t"}

Ref: PubChem BioAssay (NCI)
